inhibition: recorded values
- target.or.system: Hexose transporter 1 (Plasmodium falciparum)
- experiment.notes: ST_JUDE_LEISH: Cytotoxicity at 2uM final concentration against transgenic Leishmania Mexicana promastigotes LmPfHT that are glucose transport deficient and complemented with the Plasmodium falciparum hexose transporter. Activity is measured by DNA content using SYBR green in vitro
- Type: functional
quantity.kind: inhibition (%)

| molecule | units.text | value.reported |
| --- | --- | --- |
| O=C(Nc1ccccc1N1CCOCC1)c1ncoc1-c1ccccc1C(F)(F)F | % | 2.36 |
| CCN1CCC(N(Cc2ccc(-c3ccc(C(F)(F)F)cc3)cc2)C(=O)Cn2c(CCc3cccc(F)c3F)cc(=O)c3ccc(OCc4ccccc4)cc32)CC1 | % | 3.24 |
| C=CCOC(=O)N1CCC(CNCc2ccc(-c3cccc(-c4nc5ccccc5[nH]4)c3)cc2)C1 (centres undefined) | % | 1.73 |
| NC1=NC(c2ccccc2)(c2ccccc2)C(=O)N1Cc1ccc(-c2cccnc2)cc1 | % | 1.53 |

All figures here come from ChEMBL document CHEMBL3433997.
